The reported numbers originate from a melting point compilation (Tetko et al.; mined from patent text by program, amines drawn as free bases though some values may be those of a salt).

I'd be grateful if you could share measured melting point for these entries.

>  <molecule>
O=C(COCCCl)Nc1ccc([N+](=O)[O-])cc1

>  <experimentalEndpoint>
melting point

>  <result>
101 to 102 °C

$$$$
>  <molecule>
CC(/C=C/c1sccc1-c1cc2c(cc1C)C(C)(C)CCC2(C)C)=C\C(=O)O

>  <experimentalEndpoint>
melting point

>  <result>
208 to 209 °C

$$$$
>  <molecule>
CCOC(=O)N1N=C(c2ccc(N)cc2)c2cc(Cl)c(Cl)cc2CC1C (stereo unspecified)

>  <experimentalEndpoint>
melting point

>  <result>
190 to 192 °C

$$$$
>  <molecule>
COc1ccc(CSc2nnc(-c3ccc4nccn4c3)o2)cc1C#N

>  <experimentalEndpoint>
melting point

>  <result>
211 to 212 °C

$$$$
>  <molecule>
CCc1ccc(C#CC(C)N(O)C(=O)NC)cc1 (stereo unspecified)

>  <experimentalEndpoint>
melting point

>  <result>
126 to 128 °C

$$$$

Record melting point per entry; entries follow.
1. CCCc1nn(-c2ccc(C(F)(F)F)cn2)cc1CCCOc1cc(CC(=O)O)cc(OC)c1
2. NC(CO)c1ccc(-c2ccc(SC(F)F)cc2)cc1 (stereo unspecified)
3. CC(C)N(C[C@H](O)CO)S(C)(=O)=O
4. Nc1sc(-c2ccccn2)c(CN(C2CCCCC2)C2CCCCC2)c1C(=O)c1ccc(Cl)cc1
5. COC1=CC=C(CN2CCN(CCCC(=O)c3ccc(F)cc3)CC2)C(F)C1=NNS(=O)(=O)c1ccc(C)cc1 (stereo unspecified)
6. Cn1ncnc1COc1nn2c(-c3cc(CF)on3)nnc2c2ccccc12
7. C[C@H](CSC(=O)c1ccccc1)C(=O)N1C(c2cccs2)SC[C@H]1C(=O)O (stereo partly specified)

Response:
1. 139 to 140 °C
2. 108 to 110 °C
3. 67 to 70 °C
4. 192 to 194 °C
5. 66 to 67 °C
6. 250 to 252 °C
7. 136 to 137 °C

====

experimentalEndpoint: melting point

>  <compound>
COc1cc2c3c(cccc3c1Br)C(=O)N(O)C2=O

>  <experimentalEndpoint>
melting point

>  <result>
250 to 253 °C

$$$$
>  <compound>
CCCCCN1C(=O)C(=O)c2cc(SCCCc3ccc(C(=O)O)cc3)ccc21

>  <experimentalEndpoint>
melting point

>  <result>
145 to 146 °C

$$$$
>  <compound>
CS(=O)c1ccc(-n2cnc3ccc(-c4nnc(SCc5cccc(F)c5)o4)cc32)cc1 (stereo not drawn)

>  <experimentalEndpoint>
melting point

>  <result>
137 to 138 °C

$$$$

Record melting point per entry; entries follow.
1. Cc1cccc(C)c1-c1cc(C(N)=O)ccc1C(N)=O
2. CC(C)(C)OC(=O)C(=NO)C1=Nc2ccc(Cl)cc2C(c2ccccc2F)=NC1
3. COC(=O)C1Cc2c(ncn2Cc2ccc(N)c(C)c2)CN1C(=O)C(c1ccccc1)c1ccccc1 (stereo not drawn)

Response:
1: 246 to 248 °C; 2: 212 to 214 °C; 3: 182 to 188 °C

Record melting point per entry; entries follow.
1. Nc1ncc2c(n1)-c1ccccc1C(c1ccc(Cl)c(Cl)c1)C2 (stereo not drawn)
2. CCCCc1nc(Cl)c(C(=O)O)n1Cc1ccc2oc(-c3ccccc3-c3nnn[nH]3)c(OC)c2c1
3. Cc1cc(Oc2cccc(C#CC(C)N(O)C(N)=O)c2)ccc1F (stereo not drawn)

Response:
1. 159 to 160 °C
2. 140 to 144 °C
3. 141 to 142 °C

Record melting point per entry; entries follow.
1. CCOC(=O)COc1ccc(C2C(C(=O)OCC)=C(C)N(C)C(C)=C2C(=O)OCC)cc1OC
2. CCOC(=O)N(C)N(C)C(=S)Nc1cc(Cl)cc(Cl)c1
3. CN1CCN(c2c(CO)cnc3c(NC(=O)c4c(Cl)cccc4Cl)cccc23)C1=O
4. Cc1ccccc1N1CCN(S(=O)(=O)c2ccc([N+](=O)[O-])cc2)CC1

Response:
84 to 85 °C
147 to 149 °C
251 to 253 °C
176 to 178 °C

Record melting point per entry; entries follow.
1. COc1cc(Nc2nccc(-c3ccc(NC(C)=O)cc3)n2)cc(OC)c1OC
2. COC(=O)[C@@](C#N)(CCN(C)C)C(c1ccccc1OC)c1cccc2ccccc12 (single isomer, unassigned)
3. O=C(O)CNC(=O)Nc1ccc(CC(=O)OCc2ccccc2)cc1
4. CCCCCCCCC(=O)NCC(=O)O
5. CC(C)c1cc2c(s1)Sc1ccccc1NC2=S
6. CCOc1ccc2nc(N3CCN(c4nc(N)c5cc(OC)c(OC)cc5n4)CC3)nc-2cc1
7. COC(=O)C#CC(=O)c1ccc(SC)cc1

Response:
1: 239 °C; 2: 142 to 144 °C; 3: 192 °C; 4: 106 to 109 °C; 5: 210 °C; 6: > 250 °C; 7: 74 to 76 °C

====

I'd be grateful if you could share measured melting point for these entries.

Consider the following illustrative entries.
>  <compound>
O=C1Nc2c(ccc3ccccc23)SC1Cc1ccc(Cl)cc1 (stereo not given)

>  <result>
185 to 186 °C

$$$$
>  <compound>
C=CCOc1ccc2ccc(NC(=O)c3ccc(OC)cc3)nc2n1

>  <result>
108 °C

$$$$
>  <compound>
Clc1nc2ccccc2c2[nH]cnc12

>  <result>
257 to 258 °C

$$$$
>  <compound>
CCCN(CCC)S(=O)(=O)c1cc(-c2csc(=Nc3cccc(C)c3C)n2C)ccc1Cl

>  <result>
184 to 187 °C

$$$$
>  <compound>
CSc1ccc(N)c(C(=O)NCC2CCN(C(c3ccccc3)c3ccccc3)CC2)c1

>  <result>
156 to 157 °C

$$$$
>  <compound>
CC(=O)NNc1ccc(Cl)c(Cl)c1

>  <result>
179 to 182 °C

$$$$
>  <compound>
CCOC(=O)C(C)Oc1ccc(-c2nc(-c3ccc(OC(C)C(=O)OCC)cc3O)nc(-c3c(C)cc(C)cc3C)n2)c(O)c1 (stereo not given)

>  <result>
142 to 147 °C

$$$$
>  <compound>
Cn1cc(-c2cccc(C(F)(F)F)c2)c(=O)c(-c2ccccc2F)c1

>  <result>
152 to 154 °C

$$$$

Record melting point per entry; entries follow.
1. CC1(C)CCCC2(C)C3CC=C(C=O)CC(=O)C3CCC12 (stereo not given)
2. C#Cc1ccc(C(=C2CC(C)(C)CC(C)(C)C2)c2ccc(O)cc2)cc1

Response:
1. 87 to 88 °C
2. 138 to 139 °C

====

experimentalEndpoint: melting point

Consider the following illustrative entries.
>  <compound>
Clc1ccc2nc(NC3CCCCC3)n3nc(-c4ccco4)nc3c2c1

>  <melting point>
158 to 160 °C

$$$$
>  <compound>
COC(=O)C(C)(N)Cc1c[nH]c2ccc(Cl)cc12 (racemic)

>  <melting point>
170 °C

$$$$
>  <compound>
Nc1nc(=O)n(C(=O)c2cc(F)cc(F)c2)cc1F

>  <melting point>
227 to 231 °C

$$$$
>  <compound>
CS(=O)(=O)c1ccc(-c2cc(-c3nc4ccccc4c(=O)n3-c3ccccc3)sc2N2CCOCC2)cc1

>  <melting point>
> 275 °C

$$$$
>  <compound>
CCOC(=O)C(N=Nc1ccccc1C(=O)c1ccccn1)NC(=O)CCl (stereo not drawn)

>  <melting point>
160 to 162 °C

$$$$
>  <compound>
CCC1CC(=O)C2Oc3c(OC)ccc4c3C23CCN(C#N)C(C4)C13 (stereo not drawn)

>  <melting point>
212 to 217 °C

$$$$

Record melting point per entry; entries follow.
1. O=C(N[C@H](Cc1ccc(C(F)(F)F)cc1)[C@@H](O)c1cccc2ccccc12)C1CCCCC1 (racemic)
2. COC(=O)CCCC#Cc1cc(Cl)ccc1NS(=O)(=O)c1ccc2c(c1)CCC(=O)N2
3. CCOC(=O)C(=CNC1=NN(c2ccc(Cl)cc2)CC1)C(=O)OCC
4. CCCCCCCCCCCCCCc1ccc(CCCCCC)c(OCC(O)CO)c1 (stereo not drawn)
5. O=c1[nH]ncc(N2CCN(Cc3ccccc3)CC2)c1Cl

Response:
1. 156 to 157 °C
2. 53 to 57 °C
3. 159 to 162 °C
4. 46 to 47 °C
5. 173 to 175 °C

====

experimentalEndpoint: melting point

Consider the following illustrative entries.
>  <molecule>
O=C(O)CCCCCNC(=NC(=O)OCc1ccccc1)NC(=O)OCc1ccccc1

>  <melting point>
93 °C

$$$$
>  <molecule>
CCN=C(NC(=O)OC(C)(C)C)Nc1cc(C(C)c2ccc(-c3ccccc3)c(F)c2)no1 (stereo unspecified)

>  <melting point>
87 to 92 °C

$$$$
>  <molecule>
O=Cc1cncn1-c1ccc(F)cc1

>  <melting point>
131 to 133 °C

$$$$
>  <molecule>
CCc1cc(Cl)cc(S(N)(=O)=O)c1N

>  <melting point>
134 to 135 °C

$$$$
>  <molecule>
COC(=O)C(C)(C)OCC#Cc1cc(Cl)ccc1NS(=O)(=O)c1ccc(C(C)C)cc1

>  <melting point>
65 to 67 °C

$$$$
>  <molecule>
COc1ccc2c(c1)sc1ncc(CO)n12

>  <melting point>
202 to 204 °C

$$$$
>  <molecule>
CN1CC[C@@H](c2c(O)cc(O)c3c(=O)cc(-c4ccccc4)oc23)[C@@H]1CO

>  <melting point>
212 to 215 °C

$$$$
>  <molecule>
CCCCc1nn(-c2cc(NC(=O)CC)ccc2Cl)c(=O)n1Cc1ccc(-c2ccccc2S(=O)(=O)NC(=O)c2ccccc2Oc2ccccc2)cc1

>  <melting point>
113 to 116 °C

$$$$
>  <molecule>
NS(=O)(=O)c1ccc(-c2cnn(CC(F)=C(F)F)c(=O)c2-c2ccc(F)cc2)cc1

>  <melting point>
173 to 175 °C

$$$$
>  <molecule>
CCCc1c(C(=O)C(C)C)c2ccc(C(=O)OCc3ccccc3)cc2n1C(=O)c1ccccc1Cl

>  <melting point>
67.5 to 70 °C

$$$$

Record melting point per entry; entries follow.
1. O=C(O)CCCc1cc2nc(Cl)ccc2n1S(=O)(=O)c1ccc(N2CCCC2)cc1
2. CC(O)(CCC#N)c1ccc(-c2ccc(F)cc2)cc1 (stereo unspecified)
3. Oc1cccc2c1SCCC2
4. CCCCCC(=O)CCn1ccnc1
5. Cc1nc2sccn2c(=O)c1CCN1CCC(=C(c2ccc(F)cc2)c2ccc(F)cc2)CC1

Response:
88 °C
118 to 120 °C
86 to 88 °C
104 to 106 °C
146 °C

Request: // returns reported melting point for input OC1CCC(c2ccc(OCCCCCCCCCCCBr)cc2)CC1 (stereo unspecified)
Response: 100 to 101 °C
